Taken from the supplement of paper PMC3484114.

Would you mind telling me the reported cell growth of each entry?
# Tested on: OVCAR-3-derived ovarian cancer stem-like cells (spheroids)
# MEASUREMENT DESCRIPTION: cell growth relative to untreated control; higher = more growth (less inhibition)
# ASSAY CONTEXT: 2.29 µM; 96 h
Write down the numeric answer in % and omit the unit.

Input line: So what cell growth did Cc1ccc(NC(=O)c2cc3ccccc3c(N=Nc3ccccc3O)c2O)c(C)c1 get with OVCAR-3-derived ovarian cancer stem-like cells (spheroids)?
Output line: 75.2

Input line: Ok, now CCCc1c(Cl)nc(Cl)nc1Cl
Output line: 96.4

Input line: Ok, now CN(C)c1ccc(C=c2c3ccccc3n3c2cc(-c2ccc(Cl)cc2)[n+]3C)cc1
Output line: 39.7

Input line: Ok, now CCC1CN2CCc3cc(OC)c(OC)cc3C2CC1CC1c2cc(OC)c(OC)cc2CCN1C(=O)C(Cc1c[nH]c2ccccc12)NC(=O)OC(C)(C)C (stereo not given)
Output line: 94

Input line: Ok, now C=C1C(=O)OCC2C(C(=O)O)=CC3C(C)C(C)=CC123 (stereo not given)
Output line: 76.4

Input line: Ok, now CC(C)(C)C1CCC2(CC1)CCN(CCCN1CCOCC1)CC2
Output line: 119

Input line: Ok, now CCN(CC)CCCC(C)Nc1c2ccc(Cl)cc2nc2ccc(OC)cc12 (stereo not given)
Output line: 37.6

Input line: Ok, now CC(C)c1cccc(O)c(=O)c1
Output line: 91.8

Input line: Ok, now COc1ccc(/C=C/c2cc(O)cc(O[C@@H]3O[C@H](CO)[C@@H](O)[C@H](O)[C@H]3O)c2)cc1O
Output line: 106

Input line: Ok, now COCC(=O)OC1CCn2c1nc1c2C(=O)C(C)=C(NC(C)=O)C1=O (stereo not given)
Output line: 76.1
